experiment: Rapid solubility test of pure reference compounds in 7 solvents; conditions: ethanol, 22 °C, organic solvent or mixture, thermodynamic from solid, Solubility in EtOH, solvent ethanol; room temperature (21–23 °C)
readout: solubility
Number first, unit second.

Illustrative cases are given below, each with its answer.
| compound | solubility |
| --- | --- |
| C[C@@H]1O[C@@H](OC[C@H]2O[C@@H](Oc3c(-c4ccc(O)c(O)c4)oc4cc(O)cc(O)c4c3=O)[C@H](O)[C@@H](O)[C@@H]2O)[C@H](O)[C@H](O)[C@H]1O [Rutin] | 6.67 mg/mL |
| CC(C)=CCC/C(C)=C/CC/C(C)=C/CO [Farnesol] | 376 mg/mL |
| C=C[C@](C)(O)CC[C@@H]1[C@@]2(C)CCCC(C)(C)[C@@H]2CC[C@@]1(C)O [Sclareol] | 75.7 mg/mL |
| CN1C(=O)CC[C@H]1c1cccnc1 [Cotinine] | 190 mg/mL |

Then this compound:
Please indicate solubility recorded for C=CC(C)(O)CCC=C(C)C (centres unmarked) [Linalool]
454 mg/mL
